# Tested on: NCI-H226 complex tumor spheroids, viability
# assay summary: Anticancer human tumor NCI-H226 cell line growth inhibition;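 note: spheroids exposed to compound for 7 days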
# conditions: curve of first compound; second compound 31.6 µM
Kindly supply the reported IC50 values for the records listed here.

Prompt: Hello, please tell me recorded IC50 for this one: CC(C)n1c(=O)n(C)c2cnc3cc(F)c(-c4ccc(OCCCN5CCCCC5)nc4)cc3c21 + Cn1nnc2c(C(N)=O)ncn2c1=O
Response: 5.72 µM

Prompt: Hello, please tell me recorded IC50 for this one: Cn1ncnc1[C@H]1c2n[nH]c(=O)c3cc(F)cc(c23)N[C@@H]1c1ccc(F)cc1 + Cn1nnc2c(C(N)=O)ncn2c1=O
Response: > 3 µM

Prompt: Hello, please tell me recorded IC50 for this one: Cc1sc2c(c1C)C(c1ccc(Cl)cc1)=NC(CC(=O)Nc1ccc(O)cc1)c1nnc(C)n1-2 (stereo not given) + Cn1nnc2c(C(N)=O)ncn2c1=O
Response: 1.27 µM

Prompt: Hello, please tell me recorded IC50 for this one: COc1ccc([C@@H](O)c2cc(-c3ncnc4cc(N5CCOCC5)ccc34)c(F)cc2Cl)nn1 + Cn1nnc2c(C(N)=O)ncn2c1=O
Response: 3.69 µM

Prompt: Hello, please tell me recorded IC50 for this one: [2H]c1nc(C)nc([2H])c1-c1cc(NC[C@@H](C)c2cccc3c(C(=O)NC)ccnc23)ncn1 + Cn1nnc2c(C(N)=O)ncn2c1=O
Response: > 10 µM

Prompt: Hello, please tell me recorded IC50 for this one: CNCc1ccc(-c2cc(-c3nc(-c4ccc(S(=O)(=O)C(C)C)cc4)cnc3N)on2)cc1 + Cn1nnc2c(C(N)=O)ncn2c1=O
Response: 1.03 µM

Prompt: Hello, please tell me recorded IC50 for this one: CC1COCCN1c1cc(-c2ccnn2C)c2ccnc(-c3ccn[nH]3)c2n1 (stereo not given) + Cn1nnc2c(C(N)=O)ncn2c1=O
Response: 2.02 µM

Prompt: Hello, please tell me recorded IC50 for this one: COc1cc(C)[nH]c(=O)c1CN1CCc2c(Cl)cc(C(OC)C3COC3)c(Cl)c2C1=O (stereo not given) + Cn1nnc2c(C(N)=O)ncn2c1=O
Response: > 10 µM

Prompt: Hello, please tell me recorded IC50 for this one: Cc1cc(C)c(CNC(=O)c2cc(-c3ccc(CN4CCOCC4)cc3)cc3c2cnn3C2CCCC2)c(=O)[nH]1 + Cn1nnc2c(C(N)=O)ncn2c1=O
Response: > 10 µM

Prompt: Hello, please tell me recorded IC50 for this one: O=C(c1cc(Cc2n[nH]c(=O)c3ccccc23)ccc1F)N1CCN(C(=O)C2CC2)CC1 + Cn1nnc2c(C(N)=O)ncn2c1=O
Response: > 30 µM
